- assay explanation: Probe fluorescence ratio response to linolenic acid relative to ADIFAB2
- Format: binding
- assay conditions: response relative to ADIFAB2
The threshold is inclusive: DR/DR LNA of exactly 1 counts as T; values below receive F.

• 106N1, 72A (protein, listed as Rattus norvegicus, PEPTIDE (1)...(131) wild-type rat intestinal fatty acid binding protein) AFDGTWKVDRNENYEKFMEKMGINVVKRKLGAHDNLKLTITQEGNKFTVKESSNFRNIDVVFELGVDFAYSAADGTELTGTWTMEGNKLVGKFKRVDNGKELIAVNEISGNELIQTYTYEGVEAKRIFKKE = F
• 72A 73W 74V (protein, listed as Rattus norvegicus, PEPTIDE (1)...(131) wild-type rat intestinal fatty acid binding protein) AFDGTWKVDRNENYEKFMEKMGINVVKRKLGAHDNLKLTITQEGNKFTVKESSNFRNIDVVFELGVDFAYSAWVGTELTGTWTMEGNKLVGKFKRVDNGKELIAVREISGNELIQTYTYEGVEAKRIFKKE = T
• 18I 31L 72A (protein, listed as Rattus norvegicus, PEPTIDE (1)...(131) wild-type rat intestinal fatty acid binding protein) AFDGTWKVDRNENYEKFIEKMGINVVKRKLLAHDNLKLTITQEGNKFTVKESSNFRNIDVVFELGVDFAYSAADGTELTGTWTMEGNKLVGKFKRVDNGKELIAVREISGNELIQTYTYEGVEAKRIFKKE = T
• 74N, 72A (protein, listed as Rattus norvegicus, PEPTIDE (1)...(131) wild-type rat intestinal fatty acid binding protein) AFDGTWKVDRNENYEKFMEKMGINVVKRKLGAHDNLKLTITQEGNKFTVKESSNFRNIDVVFELGVDFAYSAANGTELTGTWTMEGNKLVGKFKRVDNGKELIAVREISGNELIQTYTYEGVEAKRIFKKE = T
• 49N, 72A (protein, listed as Rattus norvegicus, PEPTIDE (1)...(131) wild-type rat intestinal fatty acid binding protein) AFDGTWKVDRNENYEKFMEKMGINVVKRKLGAHDNLKLTITQEGNKFTNKESSNFRNIDVVFELGVDFAYSAADGTELTGTWTMEGNKLVGKFKRVDNGKELIAVREISGNELIQTYTYEGVEAKRIFKKE = T
